Listed next: entries and their corresponding PGE2 EC50 with compound.
Target under test: Prostaglandin E2 receptor EP2 subtype (Homo sapiens) (UniProt P43116)
Sequence (P43116 whole entry, looked up): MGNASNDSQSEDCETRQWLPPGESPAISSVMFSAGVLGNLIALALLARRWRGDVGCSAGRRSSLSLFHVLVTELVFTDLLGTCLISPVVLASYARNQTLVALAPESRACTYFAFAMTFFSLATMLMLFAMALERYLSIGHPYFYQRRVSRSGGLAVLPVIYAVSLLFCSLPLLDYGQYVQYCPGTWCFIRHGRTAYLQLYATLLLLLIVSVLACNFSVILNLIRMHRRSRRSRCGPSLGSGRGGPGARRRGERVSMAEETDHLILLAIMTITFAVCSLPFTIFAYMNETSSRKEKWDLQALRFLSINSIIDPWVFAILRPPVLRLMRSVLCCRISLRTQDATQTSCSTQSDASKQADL
Method summary: compounds shifting PGE2 potency at EP2 – cell-based, human EP2, PGE2 EC50 shift, dose response (AID 1421)
Experimental parameters: EP2-expressing cells, PGE2 EC50 shift by compound; at 20 µM
The whole screen tested about 1,300 compounds, of which about 140 (11%) were called active. Not all results are given here. Potency and affinity values are given separately.

Answered cases to consult:
COC(=O)CSc1nc(Cc2ccccc2)nc2ccccc12: 0.17 nM (inactive)
CCCCc1nc2sc3c(SCC(=O)NCc4ccco4)ncnc3c2c2c1CCC2: 0.59 nM (inactive)
CSc1nc(Sc2ccccc2)c2ccccc2n1: 0.21 nM (inactive)
Fc1ccc(Sc2nc(-c3ccccc3)nnc2C(F)(F)F)cc1: 1.16 nM (inactive)
C=C(C)COc1ccc2c(c1)CC[C@@H]1[C@H]3C/C(=N/O)C(=O)[C@]3(C)CC[C@@H]21: 0.41 nM (inactive)

Look at this compound and give its reported PGE2 EC50 with compound. Cc1cc(C)cc(OC2CCCCC2NS(=O)(=O)c2ccccc2)c1 (stereo unspecified)
0.48 nM (inactive)

Look at this compound and give its reported PGE2 EC50 with compound. O=C(c1ccccc1O)N1N=C(c2ccccc2)CC1(O)C(F)(F)F (stereo unspecified)
0.51 nM (inactive)

Look at this compound and give its reported PGE2 EC50 with compound. O=C1COc2ccccc2N1Cc1ccccc1Cl
0.31 nM (inactive)

Look at this compound and give its reported PGE2 EC50 with compound. Cc1noc(C)c1COC(=O)C(c1ccccc1)c1ccccc1
0.31 nM (inactive)

Look at this compound and give its reported PGE2 EC50 with compound. Cc1ccc(-n2c(Cc3cccc4ccccc34)n[nH]c2=S)c(C)c1
0.39 nM (inactive)

Look at this compound and give its reported PGE2 EC50 with compound. O=C(c1cc2sccc2n1Cc1ccc(F)cc1)N1CCCc2ccccc21
0.27 nM (inactive)

Look at this compound and give its reported PGE2 EC50 with compound. CCOc1ccccc1COC(=O)c1cccc(-n2cnnn2)c1
0.54 nM (inactive)

Look at this compound and give its reported PGE2 EC50 with compound. CCOC(=O)Nc1sc2c(c1C(=O)OCC)CCC2
0.57 nM (inactive)

Look at this compound and give its reported PGE2 EC50 with compound. Cc1ccc2c3c(cccc13)-c1ccccc1C2=O
0.36 nM (inactive)

---

Target under test: Prostaglandin E2 receptor EP2 subtype (Homo sapiens)
Method summary: compounds shifting PGE2 potency at EP2 – cell-based, human EP2, PGE2 EC50 shift, dose response (AID 1421)
Experimental parameters: EP2-expressing cells, PGE2 EC50 shift by compound; at 20 µM
Among all 1,300 compounds or so, about 140 (11%) were called active. The list is a sample of the results. Entries with a potency or affinity are not part of this list.
Listed next: entries and their corresponding PGE2 EC50 with compound.

Answered cases to consult:
COc1ccc2cc(CN(Cc3ccco3)C(c3nnnn3C3CCCCC3)C(C)C)c(=O)[nH]c2c1 (centres undefined): 820 pM (inactive)
CC1=CC2C(C(C)C)CCC(C)(O)C2CC1 (centres undefined): 830 pM (inactive)
CCCCOc1cc(C)nc(NCc2ccccc2)n1: 310 pM (inactive)

Continue with the next molecule.
Tell me reported PGE2 EC50 with compound for CC(NC(c1ccccc1)c1ccccc1)C(=O)N1CCCc2ccccc21 (centres undefined) , tested with Prostaglandin E2 receptor EP2 subtype (Homo sapiens).
360 pM (inactive)

Taken from PubChem BioAssay AID1421.
